# Test system: HT-29 (colon adenocarcinoma)
# method: MTT cell proliferation assay, HT-29
# Type: cell-based, human
# test_conditions: Homo sapiens, HT-29; MTT, 48 h of treatment; read-out: IC50 HT-29
# reported IC50; entries follow

Lab note: measured IC50 of COc1ccc(COc2cccc(NC(=O)Nc3cccc(Br)c3)c2)cc1 was 25 µM

Lab note: measured IC50 of COc1ccc(COc2cccc(NC(=O)Nc3ccccc3Br)c2)cc1 was 41 µM

Lab note: measured IC50 of COc1ccc(COc2cccc(NC(=O)Nc3cccc(F)c3)c2)cc1 was > 100 µM

Taken from paper PMC10218498.
